- Test system: Plasmodium falciparum
- ASSAY_REMARKS: Primary screen in NF54 nanoGlo assay, in single point, at 2uM, 72h; a lower Z score goes with more inhibition
- Format: functional, Erythrocyte
- TEST_PARAMETERS: timepoint 72 hour
The campaign covered roughly 150,000 compounds. About 540 (0.36%) showed an effect of 50% or more. Many of the other results were omitted from the sample, so strong results are more common in it than they were.
The following molecules are listed with their measured Z score values.
MEASURED_QUANTITY: Z score

> print(dat)
                          structure.notation  measured.quantity  result
 1           NC(=NCCOc1ncc(Cl)cc1Cl)N1CCOCC1            Z score    1.79
 2      CCN1C[C@H](Nc2ncccc2C#N)[C@@H](OC)C1            Z score    1.15
 3      CCNC(=O)N1CC[C@H](Oc2ccc3ccccc3n2)C1            Z score      -3
 4  O=C(COc1ccc(Cl)cc1)N1CC[C@H](Oc2ccc3ccccc3n2)C1            Z score    3.35
 5  COc1ccc(OC)c(-n2c(-c3ccccc3)cc(C(=O)N3CCN(Cc4ccccc4)CC3)c2C)c1            Z score    1.09
 6        c1[nH]nnc1CCN1CCOC[C@@H]1CC1CCOCC1            Z score   -1.02
 7  O=C(CCN(CCc1ccccc1)c1nc(C2CC2)nc2ccccc12)Nc1ccccc1            Z score   -0.06
 8  O=C(N[C@H](c1ccccc1F)C1CCCC1)C1CCN(C(=O)c2ccco2)CC1            Z score    0.87
 9  Cc1cc(NC(=O)c2ccc3c(c2)C(=O)N(C[C@H]2CCCO2)C3=O)no1            Z score    1.45
10  COc1ccc(NC(=O)CN2C(=O)[C@H]3CCCC3=Nc3ccccc32)cc1            Z score   -0.17
11    COC(=O)[C@@H]1C[C@@H](O)CN1Cc1ccncc1Cl            Z score     0.5
